Biological target: T1, Rae1(31-368)-Nup98(157-213) heterodimer (human, UniProt P78406 31-368; P52948 157-213)
T1 construct: also called Rae1-Nup98; Rae1-Nup98 complex
T1 sequence (P78406 31-368, chain 1 of 2): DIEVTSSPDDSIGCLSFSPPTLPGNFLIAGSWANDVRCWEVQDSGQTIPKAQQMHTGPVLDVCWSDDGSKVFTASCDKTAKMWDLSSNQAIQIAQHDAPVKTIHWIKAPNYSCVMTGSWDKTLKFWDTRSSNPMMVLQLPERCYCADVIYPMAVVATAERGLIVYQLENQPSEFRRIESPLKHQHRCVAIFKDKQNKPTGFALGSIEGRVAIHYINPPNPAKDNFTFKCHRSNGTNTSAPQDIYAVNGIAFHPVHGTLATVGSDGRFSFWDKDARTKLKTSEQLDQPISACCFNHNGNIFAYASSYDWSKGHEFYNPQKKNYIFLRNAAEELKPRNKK
T1 sequence (P52948 157-213, chain 2 of 2): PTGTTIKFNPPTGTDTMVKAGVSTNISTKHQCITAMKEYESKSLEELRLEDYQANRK
Test: ITC
Details: both partners purified
recorded endpoint: stoichiometry N
Number only, please.

Consider the binder shown here: YSQLDEEQPMAID (source: synthetic peptide) [SARS-CoV-2 ORF6-E59A] What is its recorded stoichiometry N?
0.68

// returns reported stoichiometry N for input YSQLDEEQPMEIA (source: synthetic peptide) [SARS-CoV-2 ORF6-D61A]
0.76

// query stoichiometry N value for entry YSQLDEEQAMEID (source: synthetic peptide) [SARS-CoV-2 ORF6-P57A]
2.34

Requested read-out: stoichiometry N. Entry: YSQLDEEQPMEAD (source: synthetic peptide) [SARS-CoV-2 ORF6-I60A]
0.68

Find the recorded stoichiometry N belonging to YSQLDEEQPLEID (source: synthetic peptide) [SARS-CoV-2 ORF6-M58L] and report it.
1
